molecular target: CDK6/Cyclin D1 (Homo sapiens (Human), UniProt Q00534); test: biochemical; details: CDK6_Ki (nM), non-phosphorylated CDK6/Cyclin D1, 2 mM ATP, Morrison fit
Sequence (Q00534 whole entry): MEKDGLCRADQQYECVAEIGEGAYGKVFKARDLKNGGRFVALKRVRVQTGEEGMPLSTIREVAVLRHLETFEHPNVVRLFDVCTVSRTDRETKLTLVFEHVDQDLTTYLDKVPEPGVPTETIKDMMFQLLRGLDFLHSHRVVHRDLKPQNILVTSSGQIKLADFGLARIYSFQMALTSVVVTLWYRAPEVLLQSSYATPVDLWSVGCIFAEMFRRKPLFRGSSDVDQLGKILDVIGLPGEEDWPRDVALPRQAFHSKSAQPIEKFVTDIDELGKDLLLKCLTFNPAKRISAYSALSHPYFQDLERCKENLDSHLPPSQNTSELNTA
Sequence (P24385 whole entry partner): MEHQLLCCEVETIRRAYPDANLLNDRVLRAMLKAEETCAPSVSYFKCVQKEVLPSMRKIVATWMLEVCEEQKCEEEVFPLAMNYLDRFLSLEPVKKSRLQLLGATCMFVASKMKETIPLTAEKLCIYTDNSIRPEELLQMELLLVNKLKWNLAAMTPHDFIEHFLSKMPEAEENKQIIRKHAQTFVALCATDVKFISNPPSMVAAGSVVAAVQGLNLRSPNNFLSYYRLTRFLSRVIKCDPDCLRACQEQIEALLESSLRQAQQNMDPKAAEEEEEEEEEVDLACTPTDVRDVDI
RECORDED_ENDPOINT: Ki (nM)
Number only, in nM; omit the unit.

C[C@@]1(O)CCC[C@H]1n1c(=O)ccc2cnc(NC3CCN(S(=O)(=O)NC4CCOCC4)CC3)nc21 (single isomer, unassigned)
3.23
C[C@H]1[C@H](O)CC[C@H]1n1c(=O)ccc2cnc(NC3CCN(S(C)(=O)=O)CC3)nc21 (single isomer, unassigned)
3.15
CC(C)S(=O)(=O)N1CCC(Nc2ncc3cc(CCO)c(=O)n(C4CCCC4)c3n2)CC1
1.35
CS(=O)(=O)N1CCC(Nc2ncc3cc(CC(F)F)c(=O)n([C@@H]4CC[C@@H](O)C4)c3n2)CC1 (single isomer, unassigned)
2.08
CCc1cc2cnc(NC3CCN(S(C)(=O)=O)CC3)nc2n(C2CCCC2)c1=O
0.37
C[C@]1(O)CCC[C@@H]1n1c(=O)c(CC(N)=O)cc2cnc(NC3CCN(S(C)(=O)=O)CC3)nc21 (single isomer, unassigned)
28.9
C#CCCS(=O)(=O)N1CCC(Nc2ncc3cc(N)c(=O)n(C4CCCC4)c3n2)CC1
6.3
CS(=O)(=O)N1CCC(Nc2ncc3cc(CCO)c(=O)n(C4CCCCCC4)c3n2)CC1
2.65

Read the entry CS(=O)(=O)N1CC[C@H](Nc2ncc3cc(N)c(=O)n(C4CCCC4)c3n2)[C@H](F)C1 (single isomer, unassigned; isomer b) and write its reported Ki.
1.32

Read off the recorded Ki for Cc1cc2cnc(NC3CCN(S(=O)(=O)C4CCS(=O)(=O)C4)CC3)nc2n([C@H]2CCC[C@]2(C)O)c1=O (single isomer, unassigned; isomer c) [Example 108]
3.99

Report Ki for `CS(=O)(=O)N1CCC(Nc2ncc3cc(CC(F)F)c(=O)n([C@@H]4CCC[C@@H](O)C4)c3n2)CC1`
0.63

Check the records and state Ki for `C[C@@]1(O)CCC[C@H]1n1c(=O)c(C(F)(F)F)cc2cnc(NC3CCN(S(C)(=O)=O)CC3)nc21`
0.37

Let me know recorded Ki for `CS(=O)(=O)N1CCC(Nc2ncc3cc(C(F)F)c(=O)n(C4CCCC4)c3n2)CC1` , thanks.
0.34

Write down Ki measured for item C[C@@H]1[C@H](O)CC[C@H]1n1c(=O)c(C(F)F)cc2cnc(NC3CCN(S(C)(=O)=O)CC3)nc21 (single isomer, unassigned)
0.18

Report Ki for C[C@@]1(O)CCC[C@H]1n1c(=O)c(Cl)cc2cnc(NC3CCN(S(N)(=O)=O)CC3)nc21 (single isomer, unassigned)
0.53

For the compound Cn1cnc(S(=O)(=O)N2CCC(Nc3ncc4ccc(=O)n([C@@H]5CCC[C@@]5(C)O)c4n3)CC2)c1 (single isomer, unassigned) , give its reported Ki.
0.92

For the compound CNS(=O)(=O)N1CCC(Nc2ncc3cc(C(F)F)c(=O)n([C@H]4CCC[C@]4(C)O)c3n2)CC1 (single isomer, unassigned) , report Ki.
23.1

Supply reported Ki belonging to this compound: COC(C)(C)CNS(=O)(=O)N1CCC(Nc2ncc3cc(C)c(=O)n([C@H]4CCC[C@]4(C)O)c3n2)CC1 (single isomer, unassigned)
14.3

Read the entry Cc1cc2cnc(NC3CCN(S(=O)(=O)C4CCS(=O)(=O)C4)CC3)nc2n([C@@H]2CCC[C@@]2(C)O)c1=O (single isomer, unassigned; isomer a) [Example 106] and write its reported Ki.
0.11

Answer with the recorded Ki for the compound listed here: C[C@@]1(O)CCC[C@H]1n1c(=O)ccc2cnc(NC3CCN(S(=O)(=O)c4nncs4)CC3)nc21 (single isomer, unassigned)
1.53

Provide one value: measured Ki of C[C@]1(O)CCC[C@@H]1n1c(=O)ccc2cnc(NC3CCN(S(=O)(=O)CF)CC3)nc21 (single isomer, unassigned)
3.37

Give me measured Ki, please, for this compound: COC(C)(C)CNS(=O)(=O)N1CCC(Nc2ncc3cc(C)c(=O)n([C@@H]4CCC[C@@]4(C)O)c3n2)CC1 (single isomer, unassigned)
0.74

Using the record for CNS(=O)(=O)N1CCC(Nc2ncc3cc(C(F)F)c(=O)n([C@@H]4CCC[C@@]4(C)O)c3n2)CC1 (single isomer, unassigned) , state its measured Ki.
0.43

Provide only the value of recorded Ki for CNS(=O)(=O)N1CCC(Nc2ncc3cc(F)c(=O)n([C@H]4CCC[C@]4(C)O)c3n2)CC1 (single isomer, unassigned)
36.6

Numbers sourced from patent US10233188B2.
